Taken from patent US20190330275A1.

# system.under.test: rat α3β4 nAChR (Rattus norvegicus, UniProt P04757+P12392)
# Sequence (P04757 26-499 limits assumed): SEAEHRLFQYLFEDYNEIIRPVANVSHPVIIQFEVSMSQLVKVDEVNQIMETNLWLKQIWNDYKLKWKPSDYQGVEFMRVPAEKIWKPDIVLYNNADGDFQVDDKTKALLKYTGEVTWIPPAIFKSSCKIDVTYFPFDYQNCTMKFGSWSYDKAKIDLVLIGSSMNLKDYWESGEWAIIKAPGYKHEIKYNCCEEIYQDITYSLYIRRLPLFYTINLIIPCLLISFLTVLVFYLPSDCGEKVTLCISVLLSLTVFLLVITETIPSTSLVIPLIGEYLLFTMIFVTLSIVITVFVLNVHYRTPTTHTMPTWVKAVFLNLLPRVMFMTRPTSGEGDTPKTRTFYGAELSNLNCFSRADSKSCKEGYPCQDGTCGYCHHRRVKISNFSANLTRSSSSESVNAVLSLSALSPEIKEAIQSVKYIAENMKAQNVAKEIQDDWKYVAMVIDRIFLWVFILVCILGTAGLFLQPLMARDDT
# Sequence (P12392 21-495 limits assumed): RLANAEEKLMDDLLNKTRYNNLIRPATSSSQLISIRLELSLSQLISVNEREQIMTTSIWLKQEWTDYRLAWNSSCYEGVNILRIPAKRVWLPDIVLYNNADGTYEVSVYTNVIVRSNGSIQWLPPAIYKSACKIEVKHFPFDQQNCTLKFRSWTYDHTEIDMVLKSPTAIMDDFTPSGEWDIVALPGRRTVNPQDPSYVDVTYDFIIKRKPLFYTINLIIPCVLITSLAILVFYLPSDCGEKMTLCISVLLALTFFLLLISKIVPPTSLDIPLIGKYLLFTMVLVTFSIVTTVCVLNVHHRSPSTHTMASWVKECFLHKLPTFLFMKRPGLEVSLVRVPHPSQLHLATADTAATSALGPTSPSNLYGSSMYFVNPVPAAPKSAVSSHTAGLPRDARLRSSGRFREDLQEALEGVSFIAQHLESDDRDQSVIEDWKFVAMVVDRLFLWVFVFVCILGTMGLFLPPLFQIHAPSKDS
# protocol.text: cell-based
Peptide text beside a SMILES is read from it.
readout.label: elution after blocking the α3β4 nAChR current

Please review the following examples before continuing.
compound	measured.result
CC[C@H](C)[C@@H]1NC(=O)[C@@H]2CCCN2C(=O)[C@H](CO)NC(=O)[C@H](CCSC)NC(=O)[C@H](C)NC(=O)[C@H](Cc2c[nH]cn2)NC(=O)[C@@H]2CSSC[C@H](NC(=O)CN)C(=O)N[C@@H](CSSC[C@@H](C(N)=O)NC1=O)C(=O)N[C@@H](CO)C(=O)N[C@@H](Cc1c[nH]cn1)C(=O)N1CCC[C@H]1C(=O)N[C@@H](C(C)C)C(=O)N2 [TxID[S9H]] (HELM PEPTIDE1{G.C.C.S.H.P.V.C.H.A.M.S.P.I.C.[am]}$PEPTIDE1,PEPTIDE1,2:R3-8:R3|PEPTIDE1,PEPTIDE1,3:R3-15:R3$$$V2.0)	very slow
CC[C@H](C)[C@@H]1NC(=O)[C@@H]2CCCN2C(=O)[C@H](CO)NC(=O)[C@H](CCSC)NC(=O)[C@H](C)NC(=O)[C@H](Cc2ccccc2)NC(=O)[C@@H]2CSSC[C@H](NC(=O)CN)C(=O)N[C@@H](CSSC[C@@H](C(N)=O)NC1=O)C(=O)N[C@@H](CO)C(=O)N[C@@H](Cc1c[nH]cn1)C(=O)N1CCC[C@H]1C(=O)N[C@@H](C(C)C)C(=O)N2 [TxID[S9F]] (HELM PEPTIDE1{G.C.C.S.H.P.V.C.F.A.M.S.P.I.C.[am]}$PEPTIDE1,PEPTIDE1,2:R3-8:R3|PEPTIDE1,PEPTIDE1,3:R3-15:R3$$$V2.0)	very slow
CC[C@@H]1NC(=O)[C@@H]2CSSC[C@H](NC(=O)CN)C(=O)N[C@@H](CSSC[C@@H](C(N)=O)NC(=O)[C@H]([C@@H](C)CC)NC(=O)[C@@H]3CCCN3C(=O)[C@H](CO)NC(=O)[C@H](CCSC)NC(=O)[C@H](C)NC1=O)C(=O)N[C@@H](CO)C(=O)N[C@@H](Cc1c[nH]cn1)C(=O)N1CCC[C@H]1C(=O)N[C@@H](C(C)C)C(=O)N2 [TxID[S9Abu], GCCSHPVCBAMSPIC*] (HELM PEPTIDE1{G.C.C.S.H.P.V.C.[Abu].A.M.S.P.I.C.[am]}$PEPTIDE1,PEPTIDE1,2:R3-8:R3|PEPTIDE1,PEPTIDE1,3:R3-15:R3$$$V2.0)	very slow
CC[C@H](C)[C@@H]1NC(=O)[C@@H]2CCCN2C(=O)[C@H](CO)NC(=O)[C@H](CCSC)NC(=O)[C@H](C)NC(=O)[C@H](CC(C)C)NC(=O)[C@@H]2CSSC[C@H](NC(=O)CN)C(=O)N[C@@H](CSSC[C@@H](C(N)=O)NC1=O)C(=O)N[C@@H](CO)C(=O)N[C@@H](Cc1c[nH]cn1)C(=O)N1CCC[C@H]1C(=O)N[C@@H](C(C)C)C(=O)N2 [TxID[S9L]] (HELM PEPTIDE1{G.C.C.S.H.P.V.C.L.A.M.S.P.I.C.[am]}$PEPTIDE1,PEPTIDE1,2:R3-8:R3|PEPTIDE1,PEPTIDE1,3:R3-15:R3$$$V2.0)	very slow

Please examine the following record next.
Fill in: elution after blocking the α3β4 nAChR current of CC[C@H](C)[C@@H]1NC(=O)[C@@H]2CCCN2C(=O)[C@H](CO)NC(=O)[C@H](CCSC)NC(=O)[C@H](C)NC(=O)[C@H](Cc2ccc(O)cc2)NC(=O)[C@@H]2CSSC[C@H](NC(=O)CN)C(=O)N[C@@H](CSSC[C@@H](C(N)=O)NC1=O)C(=O)N[C@@H](CO)C(=O)N[C@@H](Cc1c[nH]cn1)C(=O)N1CCC[C@H]1C(=O)N[C@@H](C(C)C)C(=O)N2 [TxID[S9Y]] (HELM PEPTIDE1{G.C.C.S.H.P.V.C.Y.A.M.S.P.I.C.[am]}$PEPTIDE1,PEPTIDE1,2:R3-8:R3|PEPTIDE1,PEPTIDE1,3:R3-15:R3$$$V2.0) is ___
very slow
